Hey, just so you know, these numbers are from patent US20250129069A1.

- study.target: human Werner helicase (WRN, amino acids 517-1235 with L1074F point mutation) (Homo sapiens (Human), UniProt Q14191, L1074F)
- Sequence (Q14191 other isoform, or with tags, fused parts or gaps L1074F (already in the parent)): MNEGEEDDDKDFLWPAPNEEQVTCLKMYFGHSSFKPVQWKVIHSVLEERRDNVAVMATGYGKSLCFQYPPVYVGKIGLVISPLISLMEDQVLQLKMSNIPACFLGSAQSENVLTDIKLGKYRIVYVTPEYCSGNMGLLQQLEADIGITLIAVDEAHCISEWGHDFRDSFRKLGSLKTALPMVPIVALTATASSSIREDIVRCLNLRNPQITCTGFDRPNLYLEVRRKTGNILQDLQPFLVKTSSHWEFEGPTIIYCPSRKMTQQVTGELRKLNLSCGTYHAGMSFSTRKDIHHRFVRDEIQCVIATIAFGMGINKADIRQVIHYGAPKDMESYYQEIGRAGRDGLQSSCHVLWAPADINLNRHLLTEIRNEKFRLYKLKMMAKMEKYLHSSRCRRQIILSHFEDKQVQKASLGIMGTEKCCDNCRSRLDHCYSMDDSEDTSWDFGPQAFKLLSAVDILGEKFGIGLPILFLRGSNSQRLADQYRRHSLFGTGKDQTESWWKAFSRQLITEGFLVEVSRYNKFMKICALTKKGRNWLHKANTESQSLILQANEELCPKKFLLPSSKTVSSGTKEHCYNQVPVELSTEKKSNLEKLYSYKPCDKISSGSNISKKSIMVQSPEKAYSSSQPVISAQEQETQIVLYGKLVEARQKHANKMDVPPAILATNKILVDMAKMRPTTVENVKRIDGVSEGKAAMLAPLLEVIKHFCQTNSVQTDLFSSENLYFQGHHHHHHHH
- method.summary: WRN (BV08) ADP-Glo assay
- measurement.conditions: human WRN (aa 517-1235, L1074F), read-out: ADP-Glo_hWRN_IC50
Recorded IC50 for the following molecules

Would you please look over these solved cases?
molecule	IC50
CCc1c(N2CCN(C(=O)c3ncnc(C)c3O)[C@H]3CC[C@@H]32)c(=O)c2nn(C3CC3)nc2n1CC(=O)Nc1ccc(C(F)(F)F)cc1Cl	≤ 5 nM
CCc1c(N2CCN(C(=O)c3c(OC)ncc([C@@H]4CCOC4)c3O)CC2)c(=O)c2nn(-c3ccnc(OC)c3)nc2n1CC(=O)NC12CC(C(C)C)(C1)C2 (single isomer, unassigned)	5 to 50 nM
CCc1c(N2CCN(C(=O)c3ncnc(C)c3O)[C@H]3CC[C@@H]32)c(=O)c2nn(-c3cnn(C4CC4)c3)nc2n1CC(=O)NC12CC(C(C)C)(C1)C2 [Compound I-58]	5 to 50 nM
CCc1c(N2CCN(C(=O)c3ncnc(C)c3O)[C@H]3CC[C@@H]32)c(=O)c2nn(-c3ccnc(C)c3)nc2n1CC(=O)NC12CC(C3CC3)(C1)C2 [Compound I-84]	5 to 50 nM
CCc1c(N2CCN(C(=O)c3ncnc(C)c3O)[C@H]3CC[C@@H]32)c(=O)c2nn(-c3ccnc(OC)c3)nc2n1CC(=O)NC12CC(C(F)(F)F)(C1)C2 [Compound I-11]	5 to 50 nM

// IC50 value for CCc1c(N2CCN(C(=O)c3ncnc(C)c3O)CC2)c(=O)c2nn(-c3ccnc(OC)c3)nc2n1CC(=O)Nc1ccc(C(F)(F)F)cc1Cl [Compound I-1] : 5 to 50 nM

// IC50 value for CCc1c(N2CCN(C(=O)c3c(O)cccc3OC(F)(F)F)CC2)c(=O)c2nn(-c3ccnc(OC)c3)nc2n1CC(=O)NC12CC(C3CC3)(C1)C2 : 5 to 50 nM

// IC50 value for CCc1c(N2CCN(C(=O)c3ncnc(C)c3O)CC2)c(=O)c2nn(-c3ccnc(OC)c3)nc2n1CC(=O)NC12CC(C3CCC3)(C1)C2 : 5 to 50 nM

// IC50 value for CCc1c(N2CCN(C(=O)c3ncnc(C)c3O)[C@H]3CC[C@@H]32)c(=O)c2nn(-c3ccnc(C)c3)nc2n1CC(=O)Nc1ccc(C(F)(F)F)cc1Cl [Compound I-96] : ≤ 5 nM

// IC50 value for CCc1c(N2CCN(C(=O)c3ncnc(C)c3O)[C@H]3CC[C@@H]32)c(=O)c2nn(-c3ccccn3)nc2n1CC(=O)NC12CC(C(C)C)(C1)C2 [Compound I-22] : 5 to 50 nM

// IC50 value for CCc1c(N2CCN(C(=O)c3c(OC)ncc(C)c3O)CC2)c(=O)c2nn(-c3ccnc(OC)c3)nc2n1CC(=O)NC1CC2(CC(C)C2)C1 (centres unmarked) : 5 to 50 nM
